# Test system: D1 dopamine receptor (Cyprinus carpio)
# experimental.protocol: Intrinsic activity measured relative to dopamine on D1C(R) receptor
readout: Intrinsic activity (%)

# count of solved cases: 10
q: Field: Intrinsic activity (D1 dopamine receptor (Cyprinus carpio)). Entry: NC[C@@H]1OC(c2ccc(I)cc2)Cc2c1ccc(O)c2O (stereo partly specified)
a: 161

q: Next up: CCCCC1Cc2c(ccc(O)c2O)[C@H](CN)O1 (stereo partly specified)
a: 151

q: Next up: C#CCNC[C@@H]1OC(C2CCCCC2)Cc2c1ccc(O)c2O (stereo partly specified)
a: 87

q: Next up: NC[C@@H]1OC(Cc2ccccc2)Cc2c1ccc(O)c2O (stereo partly specified)
a: 93

q: Next up: CC[C@H]1Cc2c(ccc(O)c2O)[C@H](CN)O1
a: 92

q: Next up: OCCCNC[C@@H]1OC(C2CCCCC2)Cc2c1ccc(O)c2O (stereo partly specified)
a: 58

q: Next up: Oc1ccc2c(c1O)CC(C1CCCCC1)O[C@H]2CNC1CC1 (stereo partly specified)
a: 71

q: Next up: NC[C@@H]1OC(CCc2ccccc2)Cc2c1ccc(O)c2O (stereo partly specified)
a: 76

q: Next up: CCCCCCC1Cc2c(ccc(O)c2O)[C@H](CN)O1 (stereo partly specified)
a: 90

q: Next up: NC[C@@H]1OC(CC2CCCC2)Cc2c1ccc(O)c2O (stereo partly specified)
a: 124

(A) COc1cccc(C2Cc3c(ccc(O)c3O)[C@H](CN)O2)c1 (stereo partly specified)
(B) NC[C@@H]1OC(COc2ccccc2)Cc2c1ccc(O)c2O (stereo partly specified)
q: Kindly identify which of A and B has the larger recorded Intrinsic activity value. # respond with the chosen item's label
a: A
(A: 107%, B: 51%)

(I) NC[C@@H]1OC(c2ccc(Br)cc2)Cc2c1ccc(O)c2O (stereo partly specified)
(II) NC[C@@H]1OC2(CCCCC2)Cc2c1ccc(O)c2O
q: Which gives the smaller Intrinsic activity number: I or II ? # respond with the chosen item's label
a: II
(II: 65%, I: 106%)
